# Subject of test: Aminopeptidase N (Sus scrofa, UniProt P15145)
# Sequence (P15145 whole entry): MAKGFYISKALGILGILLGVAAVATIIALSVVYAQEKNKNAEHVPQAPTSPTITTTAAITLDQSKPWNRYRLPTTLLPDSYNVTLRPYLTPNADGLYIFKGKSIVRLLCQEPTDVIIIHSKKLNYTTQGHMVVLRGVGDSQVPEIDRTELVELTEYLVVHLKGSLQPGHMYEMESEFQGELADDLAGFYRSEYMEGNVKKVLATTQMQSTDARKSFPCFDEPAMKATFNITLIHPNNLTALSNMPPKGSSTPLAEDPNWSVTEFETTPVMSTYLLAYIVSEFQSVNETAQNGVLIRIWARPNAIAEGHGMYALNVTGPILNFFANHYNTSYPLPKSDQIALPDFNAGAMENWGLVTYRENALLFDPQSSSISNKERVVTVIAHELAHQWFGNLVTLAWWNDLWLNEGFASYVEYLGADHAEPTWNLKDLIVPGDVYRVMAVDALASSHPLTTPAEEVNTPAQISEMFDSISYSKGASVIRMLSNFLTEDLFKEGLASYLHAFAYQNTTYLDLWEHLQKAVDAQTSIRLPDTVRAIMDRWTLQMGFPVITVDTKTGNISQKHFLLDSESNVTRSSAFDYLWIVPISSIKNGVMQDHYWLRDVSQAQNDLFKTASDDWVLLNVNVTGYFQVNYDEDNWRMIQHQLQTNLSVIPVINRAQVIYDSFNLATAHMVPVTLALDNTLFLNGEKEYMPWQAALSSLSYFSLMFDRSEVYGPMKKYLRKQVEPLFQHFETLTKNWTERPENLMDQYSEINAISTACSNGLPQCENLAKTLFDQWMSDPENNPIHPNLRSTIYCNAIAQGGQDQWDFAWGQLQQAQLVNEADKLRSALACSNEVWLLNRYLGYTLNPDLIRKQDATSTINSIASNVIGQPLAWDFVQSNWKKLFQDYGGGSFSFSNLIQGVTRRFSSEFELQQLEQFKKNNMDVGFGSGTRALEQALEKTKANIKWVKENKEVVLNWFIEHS
pIC50: −log10 of the molar value.
Assay readout: pIC50

Observe how each entry below is paired with its result.
Given smiles	Subject of test	pIC50
O=C(NO)[C@@H](Cc1ccccc1)NC(=O)N1CCN(c2ncnc3[nH]ccc23)CC1	Aminopeptidase N (Sus scrofa, UniProt P15145)	6.59
NC1(C(=O)N[C@@H](Cc2c[nH]c3ccccc23)C(=O)NO)CCN(c2ncnc3[nH]ccc23)CC1	Aminopeptidase N (Sus scrofa, UniProt P15145)	3.90
NC1(C(=O)N[C@H](Cc2ccccc2)C(=O)NO)CCN(c2ncnc3[nH]ccc23)CC1	Aminopeptidase N (Sus scrofa, UniProt P15145)	6.17
CC(C)C[C@@H](NC(=O)C1(N)CCN(c2ncnc3[nH]ccc23)CC1)C(=O)NO	Aminopeptidase N (Sus scrofa, UniProt P15145)	6.68
CC(C)C[C@@H](NC(=O)NC1CCN(c2ncnc3[nH]ccc23)CC1)C(=O)NO	Aminopeptidase N (Sus scrofa, UniProt P15145)	6.15

P: NC1(C(=O)N[C@H](C(=O)NO)c2ccccc2)CCN(c2ncnc3[nH]ccc23)CC1
Q: O=C(NC1CCN(c2ncnc3[nH]ccc23)CC1)N[C@@H](C(=O)NO)c1ccccc1
Qu. Kindly compare P with Q and tell me which has the lower pIC50 figure. Indicate which entry you chose by stating its label.
Ans. Q
